# System: Atrial natriuretic peptide receptor 1 (Oryctolagus cuniculus)
# testDetails: Binding affinity towards the low-affinity site atrionatriuretic peptide receptor 1 of rabbit adrenal membrane
Provide the recorded KL for the entries that follow.
Just the number plus its unit, please.

// lookup KL for CC[C@H](C)[C@@H]1NC(=O)[C@@H](CCCN=C(N)N)NC(=O)CNC(=O)CNC(=O)[C@@H](C2CCCCC2)NC(=O)CCSSC[C@H](C(N)=O)NC(=O)[C@@H](CCCN=C(N)N)NC(=O)[C@H](Cc2ccccc2)NC(=O)[C@@H]([C@@H](C)CC)NC(=O)[C@H](CCCN=C(N)N)NC(=O)[C@@H](CCC(=O)O)NC1=O
430 nM

Okay, and CC[C@H](C)[C@@H]1NC(=O)[C@@H](CCCN=C(N)N)NC(=O)CNC(=O)CNC(=O)[C@@H](Cc2ccccc2)NC(=O)C(C)NC(=O)[C@H](NC(=O)[C@H](CO)NC(=O)[C@@H](N)CO)CSSC[C@H](C(=O)N[C@H](Cc2ccccc2)C(=O)N[C@H](CCCN=C(N)N)C(=O)O)NC(=O)[C@@H]([C@@H](C)CC)NC(=O)[C@H](CCCN=C(N)N)NC(=O)[C@@H](CC(=O)O)NC1=O (stereo in doubt) ?
710 nM

Okay, and CC[C@H](C)[C@@H]1NC(=O)[C@@H](CCCN=C(N)N)NC(=O)CNC(=O)CNC(=O)[C@@H](Cc2ccccc2)NC(=O)CNC(=O)[C@H](NC(=O)[C@H](CO)NC(=O)[C@@H](N)CO)CSSC[C@H](C(=O)N[C@H](Cc2ccccc2)C(=O)N[C@H](CCCN=C(N)N)C(=O)O)NC(=O)[C@@H]([C@@H](C)CC)NC(=O)[C@H](CCCN=C(N)N)NC(=O)[C@@H](CC(=O)O)NC1=O ?
410 nM

----------
# Test system: Atrial natriuretic peptide receptor 1 (Oryctolagus cuniculus)
# testDetails: Binding affinity towards the low-affinity site atrionatriuretic peptide receptor 1 of rabbit adrenal membrane
// NB: equality with 400 nM counts as False; only KL strictly below is True

is_below(KL, 400 nM) for CC[C@H](C)[C@@H]1NC(=O)[C@@H](CCCN=C(N)N)NC(=O)CNC(=O)CNC(=O)[C@@H](Cc2cc(I)c(O)c(I)c2)NC(=O)[C@H](NC(=O)[C@H](N)CCCN=C(N)N)CSSC[C@H](C(N)=O)NC(=O)[C@@H](CCCN=C(N)N)NC(=O)[C@H](Cc2ccccc2)NC(=O)[C@@H]([C@@H](C)CC)NC(=O)[C@H](CCCN=C(N)N)NC(=O)[C@@H](CC(=O)O)NC1=O ?
False

Okay, and CC[C@H](C)[C@@H]1NC(=O)[C@@H](CCCCN)NC(=O)CNC(=O)CNC(=O)[C@@H](C2CCCCC2)NC(=O)CCSSC[C@H](C(N)=O)NC(=O)[C@@H](CCCN=C(N)N)NC(=O)[C@H](Cc2ccccc2)NC(=O)[C@@H]([C@@H](C)CC)NC(=O)[C@H](CCCN=C(N)N)NC(=O)[C@@H](CC(=O)O)NC1=O ?
True

Okay, and CC[C@H](C)[C@@H]1NC(=O)[C@@H](CCCN=C(N)N)NC(=O)CNC(=O)CNC(=O)[C@@H](Cc2ccccc2)NC(=O)C(C)NC(=O)[C@H](NC(=O)CCCCN)CSSC[C@H](C(=O)N[C@H](Cc2ccccc2)C(=O)N[C@H](CCCN=C(N)N)C(=O)O)NC(=O)[C@@H]([C@@H](C)CC)NC(=O)[C@H](CCCN=C(N)N)NC(=O)[C@@H](CC(=O)O)NC1=O (stereo in doubt) ?
True

Okay, and CC[C@H](C)[C@@H]1NC(=O)[C@@H](CCCN=C(N)N)NC(=O)C2CCC(CC2)NC(=O)C2CCC(CC2)NC(=O)[C@@H](Cc2ccccc2)NC(=O)C(C)NC(=O)[C@H](NC(=O)[C@H](CO)NC(=O)[C@@H](N)CO)CSSC[C@H](C(=O)N[C@H](Cc2ccccc2)C(=O)N[C@H](CCCN=C(N)N)C(=O)O)NC(=O)[C@@H]([C@@H](C)CC)NC(=O)[C@H](CCCN=C(N)N)NC(=O)[C@@H](CC(=O)O)NC1=O (stereo in doubt) ?
False

Okay, and CC[C@H](C)[C@@H]1NC(=O)[C@@H](CCCN=C(N)N)NC(=O)CNC(=O)CNC(=O)[C@@H](Cc2ccccc2)NC(=O)C(C)NC(=O)[C@H](NC(=O)[C@H](CO)NC(=O)[C@@H](N)CO)CSSC[C@H](C(=O)N2CC(C(=O)N[C@H](CCCN=C(N)N)C(=O)O)Cc3ccccc32)NC(=O)[C@@H]([C@@H](C)CC)NC(=O)[C@H](CCCN=C(N)N)NC(=O)[C@@H](CC(=O)O)NC1=O (stereo in doubt) ?
False

Okay, and CC[C@H](C)[C@@H]1NC(=O)[C@@H](CCCN=C(N)N)NC(=O)CNC(=O)CNC(=O)[C@@H](Cc2ccccc2)NC(=O)CNC(=O)[C@H](NC(=O)[C@H](CO)NC(=O)[C@@H](N)CO)CSSC[C@H](C(=O)N2CCC[C@@H]2C(=O)N[C@H](CCCN=C(N)N)C(=O)O)NC(=O)[C@@H]([C@@H](C)CC)NC(=O)[C@H](CCCN=C(N)N)NC(=O)[C@@H](CC(=O)O)NC1=O ?
False
